meta.source: ChEMBL document CHEMBL3885861

Species: Rattus norvegicus
Assay: Open TG-GATES - Regimen: Single
Type: toxicity, organism-based, Sprague-Dawley
Parameters: regimen Single, gender Male, age 6 weeks
Settings: in vivo, po, 300 mg/kg, 6 h, tissue Blood, route gavage, dose level Middle
Measured endpoint: MCH (pg)
# output: bare number, implied unit pg

Worked examples follow.
Enquiry: Fill blank: measured MCH of the molecule CNC(=C[N+](=O)[O-])NCCSCc1ccc(CN(C)C)o1 is ____.
Return: 21.6

Enquiry: // next record CN/C(=N/CCSCc1nc[nH]c1C)NC#N
Return: 21.6

Enquiry: // next record COC(=O)C1=C(C)NC(C)=C(C(=O)OC)C1c1ccccc1[N+](=O)[O-]
Return: 20.7

***
Enquiry: Fill blank: measured MCH of the molecule Cc1nnc2n1-c1ccc(Cl)cc1C(c1ccccc1Cl)=NC2 is ____.
Return: 20.5

Enquiry: // next record O=C(OC[C@H]1O[C@@H](OC(=O)c2cc(O)c(O)c(OC(=O)c3cc(O)c(O)c(O)c3)c2)[C@H](OC(=O)c2cc(O)c(O)c(OC(=O)c3cc(O)c(O)c(O)c3)c2)[C@@H](OC(=O)c2cc(O)c(O)c(OC(=O)c3cc(O)c(O)c(O)c3)c2)[C@@H]1OC(=O)c1cc(O)c(O)c(OC(=O)c2cc(O)c(O)c(O)c2)c1)c1cc(O)c(O)c(OC(=O)c2cc(O)c(O)c(O)c2)c1
Return: 22
